Reference source: ChEMBL document CHEMBL1961873

Target: Dual specificity tyrosine-phosphorylation-regulated kinase 1B (Homo sapiens);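 note: values are mean percent inhibition of DYRK1B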
Details: at 0.1 µM
assay.metric: inhibition

chem.smiles: CN(C)CCOc1ccc(-c2cc(-c3ccc4c(c3)CCC4=NO)c(-c3ccncc3)o2)cc1
inhibition: -1.57%
//
chem.smiles: O=C1Nc2ccccc2/C1=C/Nc1ccc(-n2cncn2)cc1
inhibition: 3.43%
//
chem.smiles: O=C1NC(=O)C(c2cccc(Cl)c2)=C1Nc1ccc(Cl)c(C(=O)O)c1
inhibition: -0.3%
//
chem.smiles: CCC(=O)Nc1ccc(C)c(-c2ccc(C(=O)NCC3CC3)cc2)c1
inhibition: -0.71%
//
chem.smiles: NS(=O)(=O)c1ccc(Nc2cc(-c3ccc(O)c(F)c3)n[nH]2)cc1
inhibition: 2.64%

Give the measured inhibition of Fc1ccc(-c2nc3n(c2-c2ccncc2)CCS3)cc1 .
-3.06%

Please look up its inhibition: CCc1nccc2c1nc(-c1nonc1N)n2CC
2.47%

Sample COc1cc2ncn(-c3cc(OCCc4ccccc4)c(C(N)=O)s3)c2cc1OC — what was its inhibition?
1.95%
